Target: CD73 (Homo sapiens (Human))
Test: MDA-MB-231 Cell Based CD73 Activity Assay (DMEM)
Conditions: MDA-MB-231-GFP cells, DMEM medium with 10% human plasma, 200 uM AMP
Protocol: MDA-MB-231 Cell Based CD73 Activity Assay (DMEM) MDA-MB-231-GFP cells were seeded in 384-well plates (Greiner 781946) at a density of 3000 cells per well in 50 μL of DMEM medium with 10% HP (human plasma). Cells were plated into assay plate with compounds pre-spotted, for an overnight compound treatment. 50 uL of 400 uM AMP (final concentration will be 200 uM) was added using Bio-tek dispenser. Plates were incubated for 100 mins. […] The samples were analyzed using Rapid fire.
Returns: string. Value is 1 if measured EC50 is below 30 nM, and -1 if it is greater than or equal to it.

# input Please determine if O=c1[nH]cc(-c2cc([C@H]3C[C@@H]3c3ccc(C(F)F)cc3)c3ncc(F)n3n2)c(=O)[nH]1 is below 30 nM in terms of EC50.
# output 1

# input Request: C#CCC1CCN(c2cc(-c3c[nH]c(=O)[nH]c3=O)nn3ccnc23)C1 (stereo not drawn)
# output -1

# input Request: CC1(C)C2CN(c3cc(-c4c[nH]c(=O)[nH]c4=O)nn4ccnc34)CC21 (stereo not drawn)
# output -1

# input Request: CC1(C)C(=O)N(CC(F)(F)F)c2cc([C@H]3C[C@@H]3c3cc(-c4c[nH]c(=O)[nH]c4=O)nn4c(Cl)cnc34)ccc21
# output 1

# input Request: O=c1[nH]cc(-c2cc(OCC(F)(F)F)c3nccn3n2)c(=O)[nH]1
# output -1

# input Request: O=c1[nH]cc(-c2cc([C@H]3C[C@@H]3c3ccc4cnn(CC(F)(F)F)c4c3F)c3ncc(F)n3n2)c(=O)[nH]1
# output 1

# input Request: O=c1[nH]cc(-c2cc(N3CC(F)(C(F)(F)F)C3)c3ncc(Cl)n3n2)c(=O)[nH]1
# output -1

# input Request: O=c1[nH]cc(-c2cc(N3CC[C@@H](C(F)(F)F)C3)c3nccn3n2)c(=O)[nH]1
# output 1

# input Request: C#CC1(C)CCN(c2cc(-c3c[nH]c(=O)[nH]c3=O)nn3ccnc23)C1 (stereo not drawn)
# output 1

====

biological target: CD73 (Homo sapiens (Human), UniProt P21589); format: biochemical; details: 1 mM NaH2PO4 in enzyme buffer, CD73 0.3 nM, AMP 15 uM
Sequence (P21589 27-574): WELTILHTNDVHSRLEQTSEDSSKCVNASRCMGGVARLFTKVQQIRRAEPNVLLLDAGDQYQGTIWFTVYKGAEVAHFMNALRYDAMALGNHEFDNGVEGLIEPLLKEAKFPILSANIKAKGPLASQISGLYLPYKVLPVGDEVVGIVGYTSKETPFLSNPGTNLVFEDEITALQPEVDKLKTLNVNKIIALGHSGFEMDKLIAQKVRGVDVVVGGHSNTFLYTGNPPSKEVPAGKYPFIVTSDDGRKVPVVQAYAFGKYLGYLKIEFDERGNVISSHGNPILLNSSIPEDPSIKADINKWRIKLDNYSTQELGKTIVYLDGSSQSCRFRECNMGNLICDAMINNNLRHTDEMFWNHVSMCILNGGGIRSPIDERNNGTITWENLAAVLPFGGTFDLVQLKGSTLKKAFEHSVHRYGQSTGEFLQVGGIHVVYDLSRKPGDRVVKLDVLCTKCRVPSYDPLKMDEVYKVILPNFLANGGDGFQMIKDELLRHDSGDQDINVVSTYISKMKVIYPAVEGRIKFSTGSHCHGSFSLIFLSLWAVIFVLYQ
quantity name: IC50 (nM)
All answers are understood in nM, so give the number only.

# input Quick check: IC50 on CD73 (Homo sapiens (Human), UniProt P21589), item O=C(NC1(C(F)(F)F)CC1)O[C@H]1CN(c2cc(-c3c[nH]c(=O)[nH]c3=O)nn3c(F)cnc23)CC1(F)F [Example 664] ?
# output 0.92

# input Request: O=c1[nH]cc(-c2cc([C@H]3C[C@@H]3c3cccnc3)c3nccn3n2)c(=O)[nH]1 (racemic) [Example 53]
# output 1.52

# input Request: CC(C)(C)OC(=O)N1CC2(C1)CN(c1cc(-c3c[nH]c(=O)[nH]c3=O)nn3ccnc13)CC2(F)F [Example 488]
# output 16.9

# input Request: O=c1[nH]cc(-c2cc(N3CC(F)(F)C4(CC4)C3)c3ncc(F)n3n2)c(=O)[nH]1 [Example 82]
# output 3.49

# input Request: O=c1[nH]cc(-c2cc([C@H]3C[C@@H]3c3ccc(OC(F)F)cc3)c3nccn3n2)c(=O)[nH]1 [Example 561]
# output 0.71

# input Request: CC(C)(F)C1CN(c2cc(-c3c[nH]c(=O)[nH]c3=O)nn3ccnc23)C1 [Example 409]
# output 10.7

# input Request: O=c1[nH]cc(-c2cc([C@H]3C[C@@H]3c3ccc4c(C(F)(F)F)ccnc4c3)c3nccn3n2)c(=O)[nH]1 [Example 139]
# output 4.55
